# System: RAW 264.7 cells
# assayDetails: In vitro toxicity (CellTiter-Glo cell viability), RAW 264.7;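 further: percent of untreated cells luminescence signal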
# Format: cell-based
# studyConditions: cirRNA (SEQ ID NO: 1) LNPs; RAW 264.7 cells
assayEndpoint: In vitro Viability RAW (%)
The figure you give is taken to be in %; do not add the unit.

{"compound": "CCCCCCCCC(CCCCCCCC)OC(=O)CCCCCCCN(CCCCCCCCOC(=O)C(CCCCCC)CCCCCCCC)CCCOC(=O)NCCCN(CC)CC (stereo not drawn) [Lipid 346]", "numericValue": 93}
{"compound": "CCCCC/C=C\\C/C=C\\CCCCCCCCN(CCCCCCCC(=O)OC(CCCCCCCC)CCCCCCCC)CCCOC(=O)NCCN1CCN(C)CC1 [Lipid 273]", "numericValue": 121}

Shifting focus to the compound that follows.
Request: RAW 264.7 cells / In vitro Viability RAW / CCCCCCCCCCCOC(=O)CCCCCN(CCCCCCCCOC(=O)C(CCCCCC)CCCCCCCC)CCOC(=O)NCCCN(C)C (stereo not drawn) [Lipid 224] : value?
Result: 73

// provenance: patent US12691070B2
